Data provenance: patent US8466089B2

Listing of recorded inhibition at 250 g/ha by entry.
# Tested on: barnyardgrass (Echinochloa crus-galli L.)
# TEST_PROTOCOL: Test Example 2, soil application on the day after sowing
# Format: in vivo
# SETTINGS: 21st to 22nd day after application, visual, read-out: Growth inhibition rate (%) Barnyardgrass
Report as a plain number; the unit % is understood.

Known results for molecules:
{"MOLECULE": "CCOCc1c(S(C)(=O)=O)ccc(C(=O)c2cnn(C)c2OC(C)OC(=O)OC)c1C (centres unmarked)", "SYSTEM_TESTED": "barnyardgrass (Echinochloa crus-galli L.)", "UNITS_SYMBOL": "%", "inhibition at 250 g/ha": 100}
{"MOLECULE": "COCCOc1c(S(C)(=O)=O)ccc(C(=O)c2cnn(C(C)C)c2O)c1C", "SYSTEM_TESTED": "barnyardgrass (Echinochloa crus-galli L.)", "UNITS_SYMBOL": "%", "inhibition at 250 g/ha": 100}

Entry CCCn1ncc(C(=O)c2ccc(S(C)(=O)=O)c(OCCOC)c2C)c1OC(C)OC(=O)OCC (centres unmarked) has what inhibition at 250 g/ha?
60

Entry CCCn1ncc(C(=O)c2ccc(S(C)(=O)=O)c(OCCOC)c2C)c1O has what inhibition at 250 g/ha?
98

Entry COCCOc1c(S(C)(=O)=O)ccc(C(=O)c2c(C)nn(C)c2OC(C)OC(=O)OC)c1C (centres unmarked) has what inhibition at 250 g/ha?
100

Entry COCCOc1c(S(C)(=O)=O)ccc(C(=O)c2c(C)nn(C)c2O)c1C has what inhibition at 250 g/ha?
10

Entry CCOC(=O)OC(C)Oc1c(C(=O)c2ccc(S(C)(=O)=O)c(OCCOC(C)C)c2C)cnn1C (centres unmarked) has what inhibition at 250 g/ha?
100

Entry CCn1nc(C)c(C(=O)c2ccc(S(C)(=O)=O)c(OCCOC)c2C)c1O has what inhibition at 250 g/ha?
100
